test system: HeLa MZ; assay: filipin (cholesterol) integrated intensity within LBPA endosomes, Z-score; higher = more cholesterol in LBPA endosomes; conditions: compound concentration in added solution (µM; 5 µl added to 20 µl cells): 10; 18 h
Counter-ions that a name gives are not always drawn.
filipin (z-score) values for the molecules below.

>  <molecule>
CC(=O)Oc1ccccc1C(=O)Oc1ccccc1C(=O)O

>  <filipin (z-score)>
-0.52

$$$$
>  <molecule>
NS(=O)(=O)c1cc2c(cc1C(F)(F)F)NC(Cc1ccccc1)NS2(=O)=O (configuration not stated) [Bendroflumethiazide]

>  <filipin (z-score)>
-0.486

$$$$
>  <molecule>
CC1=Nc2ccc(Cl)cc2S(=O)(=O)N1 [Diazoxide]

>  <filipin (z-score)>
-0.481

$$$$
>  <molecule>
C#C[C@]1(OC(C)=O)CC[C@H]2[C@@H]3CCC4=C[C@@H](OC(C)=O)CC[C@@H]4[C@H]3CC[C@@]21C [Ethynodiol diacetate]

>  <filipin (z-score)>
-0.00334

$$$$
>  <molecule>
NC(=O)c1cc[n+](CC2=C(C(=O)[O-])N3C(=O)[C@@H](NC(=O)[C@@H](c4ccccc4)S(=O)(=O)O)[C@H]3SC2)cc1 [Cefsulodin sodium salt]

>  <filipin (z-score)>
-0.398

$$$$
>  <molecule>
COC(=O)N/N=C/c1c[n+]([O-])c2ccccc2[n+]1[O-]

>  <filipin (z-score)>
-0.532

$$$$
>  <molecule>
C[C@@H]1C[C@H]2[C@@H]3CCC4=CC(=O)C=C[C@]4(C)[C@@]3(Cl)[C@@H](O)C[C@]2(C)[C@@]1(OC(=O)c1ccco1)C(=O)CCl [Mometasone furoate]

>  <filipin (z-score)>
0.7

$$$$

====

tested on: HeLa MZ; assay: LBPA endosome anti-LBPA integrated intensity (sum per cell), Z-score; higher = more LBPA staining; details: compound concentration in added solution (µM; 5 µl added to 20 µl cells): 10; 18 h
Structures can show the parent of a compound that is named as a salt.
Reported LBPA endosome anti-LBPA integrated intensity (z-score) values are given for each entry in this list.
quantity: LBPA endosome anti-LBPA integrated intensity (z-score)

>  <compound>
CC(=O)OCC(=O)[C@@]1(O)CC[C@H]2[C@@H]3CCC4=CC(=O)C=C[C@]4(C)[C@@]3(F)[C@@H](O)C[C@@]21C [Isoflupredone acetate]

>  <quantitative_result>
-0.851

$$$$
>  <compound>
CC(C)(C)NC(=O)[C@@H]1C[C@@H]2CCCC[C@@H]2CN1C[C@@H](O)[C@H](Cc1ccccc1)NC(=O)[C@H](CC(N)=O)NC(=O)c1ccc2ccccc2n1 [Saquinavir mesylate]

>  <quantitative_result>
0.684

$$$$
>  <compound>
CN(C)CCOC(c1ccccc1)c1ccccc1 [Diphenhydramine hydrochloride]

>  <quantitative_result>
-0.0117

$$$$
>  <compound>
Oc1c(Cl)cc(Cl)c(Cl)c1Cc1c(O)c(Cl)cc(Cl)c1Cl

>  <quantitative_result>
-0.818

$$$$

====

tested on: HeLa MZ; assay: whole-cell filipin (free cholesterol) integrated intensity, Z-score; higher = more cholesterol staining; conditions: compound concentration in added solution (µM; 5 µl added to 20 µl cells): 10; 18 h
Where a name gives a salt, the structure may show the parent alone.
The following compounds are listed with their measured whole-cell filipin (z-score) values.
quantity: whole-cell filipin (z-score)

>  <compound>
COc1cc(N)c(Cl)cc1C(=O)NC1CCN(Cc2ccccc2)CC1 [Clebopride maleate]

>  <quantity>
whole-cell filipin (z-score)

>  <quantitative_result>
0.217

$$$$
>  <compound>
NS(=O)(=O)c1cc(C2(O)NC(=O)c3ccccc32)ccc1Cl (stereo not drawn)

>  <quantity>
whole-cell filipin (z-score)

>  <quantitative_result>
-0.924

$$$$
>  <compound>
CC(C)NCC(O)COc1ccc(COCCOC(C)C)cc1 (stereo not drawn) [Bisoprolol fumarate]

>  <quantity>
whole-cell filipin (z-score)

>  <quantitative_result>
0.308

$$$$
>  <compound>
Clc1ccc(COC(Cn2ccnc2)c2ccc(Cl)cc2Cl)cc1 (stereo not drawn) [Econazole nitrate]

>  <quantity>
whole-cell filipin (z-score)

>  <quantitative_result>
0.898

$$$$
>  <compound>
COc1ccc2c(c1)c(CC(=O)OCC(=O)O)c(C)n2C(=O)c1ccc(Cl)cc1

>  <quantity>
whole-cell filipin (z-score)

>  <quantitative_result>
-0.542

$$$$
>  <compound>
CCN(CC)CCOc1ccc(C(=C(Cl)c2ccccc2)c2ccccc2)cc1 [Clomiphene citrate (Z,E)]

>  <quantity>
whole-cell filipin (z-score)

>  <quantitative_result>
1.03

$$$$
>  <compound>
O=C(N[C@H](CO)[C@H](O)c1ccc([N+](=O)[O-])cc1)C(Cl)Cl

>  <quantity>
whole-cell filipin (z-score)

>  <quantitative_result>
-1.01

$$$$
>  <compound>
CCN[C@H]1C[C@H](C)S(=O)(=O)c2sc(S(N)(=O)=O)cc21 [Dorzolamide hydrochloride]

>  <quantity>
whole-cell filipin (z-score)

>  <quantitative_result>
0.22

$$$$

These measurements were taken from the supplement of paper PMC6607015.
